Provenance of the data: patent US8980848B2

- PROCEDURE_SUMMARY: Tumor cell line cytotoxicity of flavonoid dimers, LCC6
- Type: cell-based, human
- RUN_CONDITIONS: human, LCC6 cells, IC50 of compound alone

| COMPOUND | IC50 at 72 h |
| --- | --- |
| C=Cc1ccc(CN(CCOCCOc2ccc(-c3cc(=O)c4ccccc4o3)cc2)CCOCCOc2ccc(-c3cc(=O)c4ccccc4o3)cc2)cc1 | 21 µM |
| O=c1cc(-c2ccc(OCCOCCN(CCOCCOc3ccc(-c4cc(=O)c5ccccc5o4)cc3)Cc3cccc(-c4ccccc4)c3)cc2)oc2ccccc12 | > 100 µM |
| CN(C)c1cccc2c(S(=O)(=O)N(CCOCCOc3ccc(-c4cc(=O)c5ccccc5o4)cc3)CCOCCOc3ccc(-c4cc(=O)c5ccccc5o4)cc3)cccc12 [Compound 25b] | > 100 µM |
| Cc1ccccc1CN(CCOCCOc1ccc(-c2cc(=O)c3ccccc3o2)cc1)CCOCCOc1ccc(-c2cc(=O)c3ccccc3o2)cc1 | > 100 µM |
| O=c1cc(-c2ccc(OCCOCCN(CCOCCOc3ccc(-c4cc(=O)c5ccccc5o4)cc3)Cc3ccc4ccccc4c3)cc2)oc2ccccc12 | 4.8 µM |
| N#Cc1cc(CN(CCOCCOc2ccc(-c3cc(=O)c4ccccc4o3)cc2)CCOCCOc2ccc(-c3cc(=O)c4ccccc4o3)cc2)ccn1 [Compound 64c] | > 100 µM |
| COc1cccc2oc(-c3ccc(OCCOCCNCCOCCOc4ccc(-c5cc(=O)c6c(OC)cccc6o5)cc4)cc3)cc(=O)c12 [Compound 12d] | 8.8 µM |
| COc1cccc(CN(CCOCCOc2ccc(-c3cc(=O)c4ccccc4o3)cc2)CCOCCOc2ccc(-c3cc(=O)c4ccccc4o3)cc2)c1 | > 100 µM |
| O=c1cc(-c2ccc(OCCOCCN(CCOCCOc3ccc(-c4cc(=O)c5ccccc5o4)cc3)Cc3ccncn3)cc2)oc2ccccc12 [Compound 64e] | > 50 µM |
| O=c1cc(-c2ccc(OCCOCCN(CCOCCOc3ccc(-c4cc(=O)c5ccccc5o4)cc3)c3ccccc3)cc2)oc2ccccc12 [Compound 64h] | > 100 µM |
| O=c1cc(-c2ccc(OCCOCCN(CCOCCOc3ccc(-c4cc(=O)c5ccccc5o4)cc3)Cc3ccnc(Br)c3)cc2)oc2ccccc12 [Compound 64b] | > 100 µM |
| COc1cc(-c2cc(=O)c3ccccc3o2)ccc1OCCOCCNCCOCCOc1ccc(-c2cc(=O)c3ccccc3o2)cc1OC [Compound 12b] | 12.8 µM |
